- method_notes: rate of generation of aspirin via hydrolysis, determined spectrophotometrically at 285 nm
- Format: physicochemical
- settings: buffer, pH 9, pH 9, 37° C; average of three determinations; read-out: half-life of hydrolysis to aspirin (t1/2)
readout_name: half-life (min)
State just the number; it will be interpreted in min.

Task: For the molecule shown here, `CC(=O)Oc1ccccc1C(=O)O[C@@H]1C[C@@H](O)[C@H](O)[C@@H](CO)O1` , give the reported half-life.
Result: 7
